- Test system: Bacillus subtilis
- test details: cleaved RNA product abundance (RNA/gDNA barcode ratio) relative to median wild-type variant (ratio to wild type); higher = more accumulation of the downstream cleavage product
- test context: experiment (reporter, strain, medium): exp 8a: truncated aprE reporter, strain BJT201 with 2% xylose (RNase J1 expressed); cleavage site: glnRA (positions -5 to +31 mutated)
Give cleaved RNA product abundance for every item shown.
Numbers only.

{"primary sequence": "CGACATGTCCCGCTTCTTTCATTAATCCATTATCAACTGTTTTGCTATATACATTTACCTTTTAAGAGGAGGAAT", "system tested": "Bacillus subtilis", "measured attribute": "cleaved RNA product abundance", "reported measurement": 0.224}
{"primary sequence": "CGACATGTCCCGCTTCTTTCATTAATCCGTTACCAACTGTTGTGCTATATACATTTACCTTTTAAGAGGAGGAAT", "system tested": "Bacillus subtilis", "measured attribute": "cleaved RNA product abundance", "reported measurement": 0.182}

For every listed record, write down its cleaved RNA product abundance.
1. CGACATGTCCCGCTTCTTTCATTACTCCGTTAGCAACTGTTATGCTATATACATTTACCTTTTAAGAGGAGGAAT
2. CGACATGTCCCGCTTCTTTCATTAATCCTTTAGCAACTGTTTTTCTATATACATTTACCTTTTAAGAGGAGGAAT
3. CGACATGTCCCGCTTCTTTCATTATTCCGTCAGCAACTGTTTTGCTATATACATTTACCTTTTAAGAGGAGGAAT
4. CGACATGTCCCGCTTCTTTCATTAATCCGTTAGCAATTGTTTTGCTATATACCTTTACCTTTTAAGAGGAGGAAT

## Result
[0.602, 0.478, 0.502, 0.3]

## Task Kindly indicate its recorded cleaved RNA product abundance. Item: CGACATGTCCCGCTTCTTTCATTAATCCGTTGGCAACTGTTTAGCTATATACATTTACCTTTTAAGAGGAGGAAT
## Result 0.38
